Below is a list of entries, each paired with its recorded pIC50 value.
System: Influenza A virus
Assay: Antiviral activity against influenza A (A/Singapore/91/2009 (H1N1)) virus after 16 to 18 hrs by fetuin substrate based colorimetric assay
Type: functional, organism-based
The read-out pIC50 is expressed as -log10 of concentration in moles per litre.

Reference set (2 entries):
[[record]]
compound = "CCC(CC)[C@H](NC(C)=O)[C@@H]1[C@H](O)[C@@H](C(=O)O)C[C@H]1NC(=N)N [PERAMIVIR ANHYDROUS]"
observed_property = "pIC50"
value = 9.26

[[record]]
compound = "CO[C@@H]([C@@H]1OC(C(=O)O)=C[C@H](NC(=N)N)[C@H]1NC(C)=O)[C@H](O)CO"
observed_property = "pIC50"
value = 9.05


Now take the following compound into account.
*Q* GET /values?readout=pIC50&item= C/C=C\[C@@H]1C[C@H](C(=O)O)N[C@H]1[C@@H](NC(C)=O)[C@](C)(CCC)OC
*A* 8.85

Reference source: ChEMBL document CHEMBL1649328
